Cited source: patent US20060106064A1

Target: human Sigma-1 receptor (Homo sapiens, UniProt Q99720)
Construct: expressed in transfected cells
Sequence (Q99720 whole entry): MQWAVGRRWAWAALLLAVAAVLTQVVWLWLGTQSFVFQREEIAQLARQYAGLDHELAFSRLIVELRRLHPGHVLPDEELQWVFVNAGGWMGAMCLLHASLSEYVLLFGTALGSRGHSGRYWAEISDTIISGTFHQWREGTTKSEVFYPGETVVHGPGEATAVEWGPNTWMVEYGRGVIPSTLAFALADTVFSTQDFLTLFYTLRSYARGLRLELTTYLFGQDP
Test: [3H]-(+)-pentazocine binding to MCF-7 cells stably expressing the cloned human Sigma-1 receptor
Conditions: Table 4; read-out: Affinity for the cloned Sigma-1 receptor (Ki ± SEM)
REPORTED METRIC: Ki
Output should be the measured figure followed by the unit it is expressed in.

Example entries begin here.
INSERT INTO assay_data (compound, reported_metric, result) VALUES
  ('Cc1c(C2CCN(CCc3ccccc3)CC2)noc1-c1ccc(Cl)cc1 [L741742]', 'Ki', '4.8 nM'),
  ('O=C(CCCN1CCC2(CC1)C(=O)NCN2c1ccccc1)c1ccc(F)cc1 [Spiperone]', 'Ki', '1050 nM'),
  ('O=C(CCCN1CCC(O)(c2ccc(Br)cc2)CC1)c1ccc(F)cc1 [Bromperidol]', 'Ki', '1.2 nM'),
  ('OC1(c2ccc(Cl)c(C(F)(F)F)c2)CCN(CCCC(c2ccc(F)cc2)c2ccc(F)cc2)CC1 [Penfluridol]', 'Ki', '53 nM');

# ---- query compound ----
IN: Give Ki for the following compound: CN1CCN(CCc2ccc(Cl)c(Cl)c2)CC1 [BD1063]
OUT: 3.1 nM
